- Tested Target: T1, matriptase (#3946-SE-010, R&D Systems) (UniProt Q9Y5Y6 615-855)
- T1 sequence (looked up): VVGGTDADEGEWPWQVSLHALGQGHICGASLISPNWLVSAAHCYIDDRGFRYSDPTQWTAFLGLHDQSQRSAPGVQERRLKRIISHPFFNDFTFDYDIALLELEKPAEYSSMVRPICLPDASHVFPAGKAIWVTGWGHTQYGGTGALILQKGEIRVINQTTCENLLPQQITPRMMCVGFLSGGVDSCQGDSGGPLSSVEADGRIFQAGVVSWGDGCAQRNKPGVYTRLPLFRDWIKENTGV
- Test Protocol: cell-based or functional assay
Positions of bridges follow the written chain, without caps; N, C: chain ends. kbt = C-terminal Arg ketobenzothiazole
Rule: measured Matriptase (IC50 nM) below 1 nM gets Fulfilled; anything equal to or greater than 1 nM gets Not fulfilled.

Check out these entries, answers already filled in.
[[record]]
binder = "Ac-DQKR-kbt (lactam 1-3; also: N-terminal acetyl described as 6-acetamido) [Cyclo(DQK)R-kbt, VD3152]"
label_value = "Not fulfilled"

[[record]]
binder = "Ac-GQFR-kbt [MM3122 Ac-GQFR-kbt]"
label_value = "Fulfilled"

[[record]]
binder = "Ac-DLKR-kbt (lactam 1-3; not fully specified; printed as Cyclo(DLK)R-kbt; also: N-terminal acetyl described as 6-acetamido) [Cyclo(DLK)R-kbt, VD2173]"
label_value = "Fulfilled"


Quick check: does Ac-LQFR-kbt [MM3131 Ac-LQFR-kbt] have Matriptase (IC50 nM) under 1 nM? Not fulfilled
